- System: Pseudomonas aeruginosa
- test.name: Antimicrobial activity against Pseudomonas aeruginosa ATCC 27859 at 105 ug/disk after 24 hr by disk diffusion method
- Format: functional
- conditions: ATCC 27859, 24 h, read-out: IZ
Exercise: state measured zone of inhibition at 105 µg/disc for each of the compounds provided.
One number for each entry, in mm.

State the recorded zone of inhibition at 105 µg/disc for every item in the following list.
1. O=C(CC(Sc1ccccc1)c1ccco1)c1ccccc1O (stereo not given)
2. COc1ccccc1C(=O)CC(Sc1ccccc1)c1ccco1 (stereo not given)
3. O=C(CC(Sc1ccccc1)c1ccco1)c1ccccc1Br (stereo not given)
4. O=C(CC(Sc1ccccc1)c1ccco1)c1cccc(Cl)c1 (stereo not given)
5. O=C(CC(Sc1ccccc1)c1ccco1)c1ccccc1Cl (stereo not given)

17
15
16
16
14

Data provenance is ChEMBL document CHEMBL3046841.
